# System: Aerobactin synthetase IucA (Klebsiella pneumoniae hvKP1)
# ASSAY_EXPLANATION: Biochemical IucA enzyme inhibition primary screen of the Spectrum library (AID 1346200);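 note: 100% = wells without compound and 0% = wells lacking enzyme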
# CONDITION_NOTES: malachite green pyrophosphate, A620, at 8 µM, stronger effect = lower value
activity remaining values by entry
REPORTED_PROPERTY: activity remaining (%)

>>> readout_value("O=C(OCc1ccccc1)c1ccccc1")
108
>>> readout_value("CC(=O)O[C@@H]1CC2C(C)(C)[C@H](O)CC[C@]2(C)C2CC[C@@]3(C)[C@H](c4ccoc4)OC(=O)C4OC43[C@@]21C (stereo partly drawn)")
122
>>> readout_value("Cn1cc[nH]c1=S")
99.8
>>> readout_value("CC(C)(Oc1ccc(Cl)cc1)C(=O)O")
122
>>> readout_value("CCN(CC)CCNc1ccc(CO)c2sc3ccccc3c(=O)c12")
114
>>> readout_value("CCCN(CCC)CCc1cccc2c1CC(=O)N2")
98.7
>>> readout_value("OC[C@H]1O[C@@H](Oc2ccc(O)cc2)[C@H](O)[C@@H](O)[C@@H]1O")
115
>>> readout_value("Clc1ccccc1C(c1ccccc1)(c1ccccc1)n1ccnc1")
113
>>> readout_value("Oc1ccc(O)cc1")
121
>>> readout_value("CC(=O)O[C@H]1[C@@H]2[C@@H](OC(=O)Cc3ccccc3)[C@@H](C)C[C@]2(OC(C)=O)C(=O)/C(C)=C/[C@H]2[C@H](CC[C@@]13CO3)C2(C)C")
103
>>> readout_value("CCC(C(N)=O)c1ccccc1 (stereo not drawn)")
119
>>> readout_value("CC(C)=CCOc1cc2oc(=O)ccc2cc1O")
109
>>> readout_value("COc1cc(N)c(Cl)cc1C(=O)NC1CCN(Cc2ccccc2)CC1")
119
>>> readout_value("C=C1CC2C(CC[C@]3(C)C(=O)CCC23)[C@@]2(C)C=CC(=O)C=C12 (stereo partly drawn)")
121
>>> readout_value("CC(C)(C)NC[C@@H](O)COc1nsnc1N1CCOCC1")
99.4
>>> readout_value("N[C@@H](Cc1cc(I)c(Oc2cc(I)c(O)c(I)c2)c(I)c1)C(=O)O")
117
>>> readout_value("CN(C)CCCO[C@H]1[C@@H](C(O)CO)OC2OC(C)(C)O[C@@H]21 (stereo partly drawn)")
95
>>> readout_value("CC(=O)O[C@@H]1CC2C(C)(C)C(=O)CC[C@]2(C)C2CC[C@@]3(C)[C@H](c4ccoc4)OC(=O)C4OC43[C@@]21C (stereo partly drawn)")
110
>>> readout_value("C[C@H]1OC(n2cc(F)c(=O)[nH]c2=O)C(O)[C@@H]1O (stereo partly drawn)")
121
>>> readout_value("CC(=O)O[C@@H]1CC[C@@]2(C)C(C[C@@H](OC(C)=O)[C@@]3(C)C4=CC(=O)O[C@@H](c5ccoc5)[C@]4(C)CCC23)C1(C)C (stereo partly drawn)")
121
>>> readout_value("CC(C)NCC(O)COc1cccc2[nH]ccc12 (stereo not drawn)")
103
>>> readout_value("CC(=O)OCC(=O)[C@@]12OC(C)(C)O[C@@H]1CC1C3C[C@H](F)C4=CC(=O)C=C[C@]4(C)[C@@]3(F)[C@@H](O)C[C@@]12C (stereo partly drawn)")
100
>>> readout_value("CN(C)C(=O)Oc1cccc([N+](C)(C)C)c1")
87.4
>>> readout_value("COc1cccc(OC)c1C(=O)N[C@@H]1C(=O)N2[C@@H]1SC(C)(C)[C@@H]2C(=O)O")
85.9
>>> readout_value("NC(N)=NC(=O)c1nc(Cl)c(N)nc1N")
118
>>> readout_value("CN(C)CCC=C1c2ccccc2C=Cc2ccccc21")
111
>>> readout_value("Cc1c(O)c(O)cc2c1CC=C1[C@@]2(C)CC[C@@]2(C)C3C[C@](C)(C(=O)O)CC[C@]3(C)CC[C@]12C (stereo partly drawn)")
103
>>> readout_value("CC[C@H](CCC(C)[C@H]1CCC2C3CCC4C[C@@H](O)CC[C@]4(C)C3CC[C@@]21C)C(C)C (stereo partly drawn)")
102
>>> readout_value("C=C[C@@H]1C2=CCOC(=O)C2=CO[C@H]1O[C@@H]1O[C@H](CO)[C@@H](O)[C@H](O)[C@H]1O")
126
>>> readout_value("O=C(CCCN1CCC2(CC1)C(=O)NCN2c1ccccc1)c1ccc(F)cc1")
110
>>> readout_value("C[C@]12CCC3c4ccc(O)cc4CCC3C1CC[C@@H]2O (stereo partly drawn)")
125
>>> readout_value("CC(=O)O[C@H]1C[C@@H](O)C(C)(C)C2C[C@@H](OC(C)=O)[C@]3(C)C(CC[C@@]4(C)[C@H](c5ccoc5)OC(=O)C5OC543)[C@]21C (stereo partly drawn)")
104
>>> readout_value("CC(=O)O[C@@H]1C[C@@]2(C)C(CC[C@@H]2C(C)=O)C2CCC3=CC(=O)CC[C@]3(C)C21 (stereo partly drawn)")
88.2
>>> readout_value("NCCCCC(=O)O")
107
>>> readout_value("CCCSc1ccc2nc(NC(=O)OC)[nH]c2c1")
111
>>> readout_value("COC(=O)C[C@@H]1C2(C)C(=O)[C@@H](CC3=C4CC(O)O[C@@H](c5ccoc5)[C@]4(C)CCC32)[C@H](O)C1(C)C (stereo partly drawn)")
128
>>> readout_value("CC1(C)C(=O)[C@@H]2C[C@@]3(O)C4=CC(=O)O[C@@H](c5ccoc5)[C@]4(C)CCC3C(C)(C2=O)[C@H]1CC(=O)O (stereo partly drawn)")
98.2
>>> readout_value("NC(=O)NO")
121

====

# ASSAY_EXPLANATION: liver-stage malaria parasite growth inhibition, primary screen, cell-based, HepG2, luciferase luminescence, HepG2 viability (AID 624349);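 note: 100% = mean of DMSO negative control wells on the same plate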
# CONDITION_NOTES: P. berghei liver stage in HepG2, luciferase luminescence, concentration not given here; measured here: HepG2 viability without parasites
viability values by entry
REPORTED_PROPERTY: viability (%)

>>> readout_value("CCN(C(C)=O)c1cccc(-c2ccnc3c(C#N)cnn23)c1")
71
>>> readout_value("COc1ccc2c(c1)[C@]13CCCC[C@H]1[C@H](C2)N(C)CC3")
71.2
>>> readout_value("CCC1C2CC3[C@@H]4N(C)c5ccccc5[C@]45CC(C2[C@H]5O)N3[C@@H]1O (stereo not given in full)")
70.7
>>> readout_value("COc1ccc2c(c1OC)C(=O)O[C@H]2[C@H]1c2cc3c(cc2CCN1C)OCO3")
70.9
>>> readout_value("FC(F)(F)c1cccc(N2CCNCC2)c1")
71.2

====

# ASSAY_EXPLANATION: sensitizers of A549 cells to miR-34 induction, primary screen, imaging, A549 dox-inducible miR-34, nuclei and caspase counts (AID 1347080)
# CONDITION_NOTES: A549 miR-34 inducible, Hoechst nuclei count, 48 h; stronger effect = lower value; cell number ratio, induced over uninduced
fold change values by entry
REPORTED_PROPERTY: fold change

>>> readout_value("CCCCCCC[n+]1ccc(-c2cc[n+](CCCCCCC)cc2)cc1")
1.13
>>> readout_value("C=CC(C)(C)c1cc2cc3c(cc2oc1=O)OC(C(C)(C)O)C3 (stereo unspecified)")
0.846
>>> readout_value("CCCCC/C=C\\C/C=C\\C/C=C\\C/C=C\\CCCC(=O)NCC(O)CC(=O)O (stereo unspecified)")
1.07
>>> readout_value("FC(F)(F)c1cccc(C2=CCN(CCc3ccc4ccccc4c3)CC2)c1")
0.954
>>> readout_value("CN(C)c1ccc(/C=C2\\CCCN=C2c2cccnc2)cc1")
0.947
>>> readout_value("COc1ccc(CC2NCCc3cc(OC)c(OC)cc32)cc1OC (stereo unspecified)")
0.988

====

luciferase signal values by entry
# SYSTEM_NAME: Mitogen-activated protein kinase 7 (Homo sapiens) (UniProt Q13164)
# Sequence (Q13164 whole entry, looked up, the tested form may be a part): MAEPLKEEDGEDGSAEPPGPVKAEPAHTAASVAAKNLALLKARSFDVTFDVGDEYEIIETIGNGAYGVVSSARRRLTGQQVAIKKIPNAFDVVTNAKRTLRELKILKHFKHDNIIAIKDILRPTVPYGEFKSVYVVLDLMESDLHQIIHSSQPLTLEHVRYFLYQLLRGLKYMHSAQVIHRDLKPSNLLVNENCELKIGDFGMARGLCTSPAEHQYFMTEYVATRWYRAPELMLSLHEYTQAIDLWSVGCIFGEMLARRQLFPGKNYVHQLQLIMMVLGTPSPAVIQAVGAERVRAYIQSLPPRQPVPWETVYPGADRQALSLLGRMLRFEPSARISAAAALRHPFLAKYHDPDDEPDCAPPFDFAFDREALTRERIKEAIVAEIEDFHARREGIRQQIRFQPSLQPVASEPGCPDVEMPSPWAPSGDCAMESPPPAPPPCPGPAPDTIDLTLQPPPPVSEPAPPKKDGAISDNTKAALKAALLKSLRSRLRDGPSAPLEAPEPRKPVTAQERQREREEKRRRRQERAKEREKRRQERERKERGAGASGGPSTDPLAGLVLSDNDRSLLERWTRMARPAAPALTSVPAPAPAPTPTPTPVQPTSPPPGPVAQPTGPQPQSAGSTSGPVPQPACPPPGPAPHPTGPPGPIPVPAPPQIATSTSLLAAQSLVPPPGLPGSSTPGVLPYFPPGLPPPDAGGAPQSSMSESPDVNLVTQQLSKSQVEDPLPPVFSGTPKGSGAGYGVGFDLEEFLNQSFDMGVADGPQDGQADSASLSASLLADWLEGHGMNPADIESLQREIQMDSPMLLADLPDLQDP
# ASSAY_EXPLANATION: ERK5 transactivation activators in reporter cells, primary screen, cell-based, HTS (AID 1508626);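 note: luciferase driven by Gal4-ERK5 fusion binding five Gal4 sites before minimal TATA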
# CONDITION_NOTES: HeLa Gal4-ERK5 transactivation, 18 h, at 5 µM, stronger effect = higher value
Calls of active or inactive are those of the source.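 How the source made its calls: active means luciferase signal above three times the same-plate solvent-only control wells; inactive means the rest.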
REPORTED_PROPERTY: luciferase signal

>>> readout_value("CC[C@@H](C)C(=O)O[C@H]1[C@H](O)[C@H]2[C@@H](CN3C[C@@H](C)CC[C@H]3[C@@]2(C)O)[C@@H]2C[C@]34O[C@]5(O)[C@@H](OC(=O)[C@](C)(O)[C@@H](C)O)CC[C@@]3(C)[C@@H]5[C@@H](OC(C)=O)[C@@H](OC(C)=O)[C@H]4[C@@]21O")
"88 AU (inactive)"
>>> readout_value("CCC(N)C(O)c1ccc(O)c(O)c1 (configuration not stated)")
"76 AU (inactive)"
>>> readout_value("Cc1c(O)c(O)cc2c1CC=C1[C@@]2(C)CC[C@@]2(C)[C@@H]3C[C@](C)(C(=O)O)CC[C@]3(C)CC[C@]12C")
"128 AU (inactive)"
>>> readout_value("CCNc1nc(Cl)nc(NCC)n1")
"52 AU (inactive)"
>>> readout_value("C=C(C)[C@@H]1[C@H]2OC(=O)[C@@H]1[C@]1(O)C[C@H]3O[C@]34C(=O)O[C@H]2[C@]14C")
"76 AU (inactive)"
>>> readout_value("NCC(=O)c1ccccc1")
"56 AU (inactive)"
>>> readout_value("O=c1oc2ccccc2c(O)c1Cc1c(O)c2ccccc2oc1=O")
"28 AU (inactive)"
